For each entry below, report its IC50 value.
- Tested on: PMA-differentiated THP-1 cells
- protocol text: IL-1β production in PMA-differentiated THP-1 cells stimulated with gramicidin (hTHP-1 assay containing 2% fetal bovine serum; Procedures 1 and 2)
- Type: cell-based, human
- conditions used: Table B4; 2% fetal bovine serum; class symbols; read-out: hTHP-1 IC50
- Method: The following protocol is suitable for testing the activity of the compounds disclosed herein. Procedure 1: IL-1β Production in PMA-Differentiated THP-1 Cells Stimulated with Gramicidin. […] THP-1 cells were treated with PMA (Phorbol 12-myristate 13-acetate) (20 ng/ml) for 16-18 hours. […] The plates were incubated for 18 h at 4° C. and read using the preset HTRF program (donor emission at 620 nm, acceptor emission at 668 nm) of the SpectraMax i3x spectrophotometer (Molecular Devices, software SoftMax 6). […]

These solved cases illustrate the format of a correct answer.
[
  {
    "compound": "NS(=O)(=NC(=O)Nc1c2c(nc(C(F)(F)F)c1-c1ccccc1)CCC2)c1nn(C(F)F)cc1F (single isomer, unassigned) [Example 765]",
    "IC50": "8 to 40 nM"
  },
  {
    "compound": "Cc1c(C(F)(F)F)nc2c(c1NC(=O)N=S(N)(=O)c1nn(C(C)C)cc1F)CCC2 (single isomer, unassigned) [Example 790]",
    "IC50": "5000 to 30000 nM"
  },
  {
    "compound": "CCn1cc(F)c(S(N)(=O)=NC(=O)Nc2c3c(nc4c2CCC4)CCC3)n1 (single isomer, unassigned) [Example 761]",
    "IC50": "40 to 200 nM"
  }
]

# batch size: 4; output IC50 per entry
1. Cc1c(C(F)(F)F)nc(C(F)(F)F)c(C)c1NC(=O)N=S(N)(=O)c1cc(C(C)(C)O)cs1 (single isomer, unassigned) [Example 755]
2. NS(=O)(=NC(=O)Nc1c2c(nc(C(F)(F)F)c1-c1ccccc1)CCC2)c1nn(C(F)F)cc1F (single isomer, unassigned) [Example 766]
3. CCn1cc(F)c(S(N)(=O)=NC(=O)Nc2c3c(nc(C(F)(F)F)c2-c2ccc(F)cc2)CCC3)n1 (single isomer, unassigned) [Example 788]
4. CCn1cc(F)c(S(N)(=O)=NC(=O)Nc2c3c(nc(C(F)(F)F)c2-c2ccccc2F)CCC3)n1 (single isomer, unassigned) [Example 780]

Solution:
200 to 1000 nM
1000 to 5000 nM
1000 to 5000 nM
200 to 1000 nM

Could you tell me IC50 for each of these compounds? They are listed below.
1. CCn1cc(F)c(S(N)(=O)=NC(=O)Nc2c(-c3ccccc3)cnc3c2CCC3)n1 (single isomer, unassigned) [Example 794]
2. CCn1cc(F)c(S(N)(=O)=NC(=O)Nc2c3c(nc(C(F)(F)F)c2-c2cccc(F)c2)CCC3)n1 (single isomer, unassigned) [Example 782]

Solution:
["5000 to 30000 nM", "200 to 1000 nM"]

====

- System: PMA-differentiated THP-1 cells
- protocol text: IL-1β production in PMA-differentiated THP-1 cells stimulated with gramicidin (hTHP-1 assay containing 2% fetal bovine serum; Procedures 1 and 2)
- Type: cell-based, human
- conditions used: Homo sapiens, THP-1, Table B2; 2% fetal bovine serum; class symbols; read-out: hTHP-1 IC50
pIC50: −log10 of the molar value.
Please go through the items and note down their pIC50.

[
  {
    "compound": "Cc1c(C(C)C)nc2c(c1NC(=O)N=S(N)(=O)c1ccn(C(C)C)n1)CCC2 (single isomer, unassigned) [Compound 644b]",
    "pIC50": "5.30 to 6.00"
  },
  {
    "compound": "Cc1c(C(C)C)nc2c(c1NC(=O)N=S(N)(=O)c1cnc(C(C)(C)O)s1)CCC2 (stereo not drawn)",
    "pIC50": "6.00 to 6.70"
  },
  {
    "compound": "C[C@@H]1CCc2c1nc1c(c2NC(=O)N=S(N)(=O)c2ccn(-c3ccccc3)n2)CCC1 (single isomer, unassigned) [Compound 700b]",
    "pIC50": "6.00 to 6.70"
  },
  {
    "compound": "CCn1ccc(S(N)(=O)=NC(=O)Nc2c3c(nc4c2CC[C@H]4C)CCC3)n1 (stereo partly drawn)",
    "pIC50": "6.70 to 7.40"
  }
]

Please supply pIC50 for each of the following items, keeping them in order.
1. CCc1ccsc1S(N)(=O)=NC(=O)Nc1c2c(nc3c1CC[C@H]3C)CCC2 (stereo partly drawn) [Compound 725a]
2. Cc1c(C2CC2)nc2c(c1NC(=O)N=S(N)(=O)c1ccn(C(F)F)n1)CCC2 (stereo not drawn) [Compound 676]

Solution:
1. 5.30 to 6.00
2. 5.30 to 6.00
